Reference source for all entries: ChEMBL document CHEMBL1128148

For UniProt P43119, measured IC50 is reported for the entries below.
Sequence (P43119 whole entry): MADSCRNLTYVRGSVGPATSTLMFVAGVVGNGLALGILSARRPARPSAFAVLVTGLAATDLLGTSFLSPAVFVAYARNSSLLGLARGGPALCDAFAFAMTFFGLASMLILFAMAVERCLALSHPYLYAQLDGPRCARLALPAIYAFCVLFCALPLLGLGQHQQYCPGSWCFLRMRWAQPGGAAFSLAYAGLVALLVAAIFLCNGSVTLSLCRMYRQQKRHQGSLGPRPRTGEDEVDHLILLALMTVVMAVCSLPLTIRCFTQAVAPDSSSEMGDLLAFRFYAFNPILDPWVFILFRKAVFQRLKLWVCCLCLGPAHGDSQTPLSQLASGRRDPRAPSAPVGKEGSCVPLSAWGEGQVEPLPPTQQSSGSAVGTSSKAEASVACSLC
Quantity: IC50 (nM)

**Query** Under UniProt P43119: report IC50 of O=C(O)COc1cccc2c1CCC(CCOC(c1ccccc1)c1ccccc1)C2 (centres undefined) .
**Result** 8000

[1] O=C(O)COc1cccc2c1CCCC2CCCOC(c1ccccc1)c1ccccc1 (centres undefined)
[2] O=C(O)COc1cccc2c1CCC(CON=C(c1ccccc1)c1ccccc1)C2 (centres undefined)
[3] O=C(O)COc1cccc2c1CCCC2CCON=C(c1ccccc1)c1ccccc1 (centres undefined)
**Query** Hey, quick one: sort these by IC50, low to high? Your reply should list the labels following the order given in the request.
**Result** 3, 1, 2
